Attribution: patent US4748187A

Can you tell me IC50 for the items I'm about to list?
# studySystem: aminopeptidase
# assayOverview: Inhibition of aminopeptidase of human cerebrospinal fluid (substrate enkephalin)
# Format: biochemical
# experimentalContext: aminopeptidase eluted from human cerebrospinal fluid; substrate enkephalin
Give bare numbers, in μg/m.

Answered cases to consult:
O=C(O)C[CH](c1ccccc1)[Ge](=[S])[S][Ge](=[S])[CH](CC(=O)O)c1ccccc1 (stereo not shown); 440
N=C(N)NCCCC(N)C(=O)CC(Cc1ccc(O)cc1)C(=O)O (stereo not shown) [Arphamenine B, reference compound]; 650
N=C(N)NCCCC(N)C(=O)CC(Cc1ccccc1)C(=O)O (stereo not shown) [Arphamenine A, reference compound]; 810

Shift focus to the following entry.
Prompt: Find the measured IC50: item CC([CH2][Ge](=[S])[S][Ge](=[S])[CH2]C(C)C(=O)O)C(=O)O (stereo not shown) , target or system aminopeptidase.
Response: 450
